# credit: patent US9493468B2

Tested on: Scedosporium prolificans
Experiment: Antifungal activity in vitro, resazurin growth inhibition: Scedosporium prolificans (IHEM21157)
Assay type: cell-based
reported.endpoint: Inf. I: Scedosporium prolificans IHEM21157, pIC50
# respond with the number and nothing more

Worked examples, 5 compounds total:
In [3]: df
Out[3]:
                                        smi  numeric_result
0  Cn1nnc2ccc(C3=NCc4c(Cl)cccc4-n4cccc43)cc21            5.89
1  CC(F)(F)c1ccc(C2=NCc3c(F)cccc3-n3cccc32)cn1            6.09
2  CC(C)n1ccc(C2=NCc3c(Cl)cccc3-n3cccc32)cc1=O            6.38
3   c1ccc2c(c1)CN=C(c1cc3ccccc3s1)c1cccn1-2            6.27
4  Cn1ccc2cc(C3=NCc4c(Cl)cc(Cl)cc4-n4cccc43)ccc21            5.48

Task: Provide Inf. I: Scedosporium prolificans IHEM21157, pIC50, recorded with Scedosporium prolificans, of FC(F)(F)c1ncc(C2=NCc3c(Cl)cccc3-n3cccc32)cn1
Output: 5.18

Task: Provide Inf. I: Scedosporium prolificans IHEM21157, pIC50, recorded with Scedosporium prolificans, of Clc1cc(Cl)c2c(c1)-n1cccc1C(c1cc3ccccc3o1)=NC2
Output: 5.52

Task: Provide Inf. I: Scedosporium prolificans IHEM21157, pIC50, recorded with Scedosporium prolificans, of Clc1cccc2c1-n1cccc1C(c1cc3ccccc3s1)=NC2
Output: 6.31
